All values here come from patent US9683019B2.

experiment: Surrogate Activity-Based Plasma Stability Assay; format: in vitro ADME; conditions: rat
Where a SMILES comes first, the peptide text is derived from it. Bridges are numbered along the chain shown (N, C = ends). [ ]: non-standard residue; d: D form. 2Nal = N[C@@H](Cc1ccc2ccccc2c1)C(=O)O; pGlu = O=C1CC[C@@H](C(=O)O)N1; dNle = CCCC[C@@H](N)C(=O)O; Nle = CCCC[C@H](N)C(=O)O; dAbu = CC[C@@H](N)C(=O)O
measurement_label: half-life (min)
Dear colleague, please return just the value in min, with no unit written.

Query string: Identify measured half-life corresponding to CCCC[C@@H](NC(=O)[C@@H]1CCCN1C(=O)CNC(=O)[C@H](CCCCN)NC(=O)[C@@H]1CSSC[C@@H](NC(=O)[C@H](CCCNC(=N)N)NC(=O)[C@@H]2CCC(=O)N2)C(=O)N[C@@H](CCCNC(=N)N)C(=O)N[C@@H](CC(C)C)C(=O)N[C@@H](CO)C(=O)N1)C(=O)N[C@H](CC)C(=O)N[C@H](Cc1ccccc1)C(=O)O [Example 27] ([pGlu]R[dC]RLSCKGP[dNle][dAbu][dF]-OH; disulfide 3-7)
Result string: 82

Query string: Identify measured half-life corresponding to CCCC[C@H](NC(=O)[C@@H]1CCCN1C(=O)CNC(=O)[C@H](CCCCN)NC(=O)[C@@H]1CSSC[C@H](NC(C)=O)C(=O)N[C@@H](CCCNC(=N)N)C(=O)N2CCC[C@H]2C(=O)N[C@@H](CCCNC(=N)N)C(=O)N[C@@H](CC(C)C)C(=O)N[C@@H](CO)C(=O)N1)C(=O)N1CCC[C@H]1C(=O)N[C@@H](Cc1ccccc1)C(=O)O [Example 1, Ac-C*-R-P-R-L-S-C*-K-G-P-Nle-P-F-OH] (Ac-CRPRLSCKGP[Nle]PF-OH; disulfide 1-7)
Result string: 8

Query string: Identify measured half-life corresponding to CCCC[C@H](NC(=O)[C@@H]1CCCN1C(=O)CNC(=O)[C@H](CCCCN)NC(=O)[C@@H]1CSSC[C@H](NC(C)=O)C(=O)N[C@@H](CCCNC(=N)N)C(=O)N2CCC[C@H]2C(=O)N[C@@H](CCCNC(=N)N)C(=O)N[C@@H](CC(C)C)C(=O)N[C@@H](CO)C(=O)N1)C(=O)N1CCC[C@H]1C(=O)N[C@@H](Cc1ccc2ccccc2c1)C(=O)O [Example 5, Ac-C*-R-P-R-L-S-C*-K-G-P-Nle-P-Nal-OH] (Ac-CRPRLSCKGP[Nle]P[2Nal]-OH; disulfide 1-7)
Result string: 5

====

test: Surrogate Activity-Based Plasma Stability Assay; format: in vitro ADME; details: rat
Where a SMILES comes first, the peptide text is derived from it. Bridges are numbered along the chain shown (N, C = ends). [ ]: non-standard residue; d: D form. The star is where a group is joined. pGlu = O=C1CC[C@@H](C(=O)O)N1; NHPhenethyl = c1ccc(CCN*)cc1; d(hCys) = N[C@H](CCS)C(=O)O; hCys = N[C@@H](CCS)C(=O)O; Nle = CCCC[C@H](N)C(=O)O
measurement_label: half-life (min)
Dear colleague, please return just the value in min, with no unit written.

Query string: Identify measured half-life corresponding to CC(C)C[C@@H]1NC(=O)[C@@H](NC(=O)[C@@H]2CCCN2C(=O)[C@H](CCCNC(=N)N)NC(=O)[C@@H]2CCC(=O)N2)CCSSC[C@@H](C(=O)N[C@@H](CCCCN)C(=O)NCC(=O)N2CCC[C@H]2C(=O)N[C@H](Cc2ccccc2)C(=O)N[C@H](C)C(=O)N[C@H](Cc2ccccc2)C(=O)O)NC(=O)[C@H](CO)NC1=O [Example 36, pE-R-P-hC*-L-S-C*-K-G-P-f-a-f-OH] ([pGlu]RP[hCys]LSCKGP[dF][dA][dF]-OH; disulfide 4-7)
Result string: 34

Query string: Identify measured half-life corresponding to CCCC[C@H](NC(=O)[C@@H]1CCCN1C(=O)CNC(=O)[C@H](CCCCN)NC(=O)[C@@H]1CSSC[C@H](NC(C)=O)C(=O)N[C@@H](CCCNC(=N)N)C(=O)N2CCC[C@H]2C(=O)N[C@@H](CCCNC(=N)N)C(=O)N[C@@H](CC(C)C)C(=O)N[C@@H](CO)C(=O)N1)C(=O)NCCc1ccccc1 [Example 11] (Ac-CRPRLSCKGP[Nle]-NHPhenethyl; disulfide 1-7)
Result string: 32.8

---
Query string: Identify measured half-life corresponding to CC(C)C[C@@H]1NC(=O)[C@H](CCCNC(=N)N)NC(=O)[C@@H](NC(=O)[C@H](CCCNC(=N)N)NC(=O)[C@@H]2CCC(=O)N2)CSSCC[C@H](C(=O)N[C@@H](CCCCN)C(=O)NCC(=O)N2CCC[C@H]2C(=O)N[C@H](Cc2ccccc2)C(=O)N[C@H](C)C(=O)N[C@H](Cc2ccccc2)C(=O)O)NC(=O)[C@H](CO)NC1=O [Example 26, pE-R-C*-R-L-S-(D-hC)*-K-G-P-f-a-f-OH] ([pGlu]RCRLS[d(hCys)]KGP[dF][dA][dF]-OH; disulfide 3-7)
Result string: 52

Query string: Identify measured half-life corresponding to CCCC[C@H](NC(=O)[C@@H]1CCCN1C(=O)CNC(=O)[C@H](CCCCN)NC(=O)[C@@H]1CCSSCC[C@H](NC(C)=O)C(=O)N[C@@H](CCCNC(=N)N)C(=O)N2CCC[C@H]2C(=O)N[C@@H](CCCNC(=N)N)C(=O)N[C@@H](CC(C)C)C(=O)N[C@@H](CO)C(=O)N1)C(=O)N1CCC[C@H]1C(=O)N[C@@H](Cc1ccccc1)C(=O)O [Example 7, Ac-hC*-R-P-R-L-S-hC*-K-G-P-Nle-P-F-OH] (Ac-[hCys]RPRLS[hCys]KGP[Nle]PF-OH; disulfide 1-7)
Result string: 9

====

assay: Surrogate Activity-Based Plasma Stability Assay; format: in vitro ADME; settings: rat
Where a SMILES comes first, the peptide text is derived from it. Bridges are numbered along the chain shown (N, C = ends). [ ]: non-standard residue; d: D form. pGlu = O=C1CC[C@@H](C(=O)O)N1; Nle = CCCC[C@H](N)C(=O)O
In this section we review reported half-life values for a set of compounds.
Dear colleague, please return just the value in h, with no unit written.

Query string: Identify measured half-life corresponding to CCCC[C@H](NC(=O)[C@@H]1CCCN1C(=O)CNC(=O)[C@H](CCCCN)NC(=O)[C@@H]1CSSC[C@H](NC(=O)[C@@H]2CCCN2C(=O)[C@H](CCCNC(=N)N)NC(=O)[C@@H]2CCC(=O)N2)C(=O)N[C@@H](CC(C)C)C(=O)N[C@@H](CO)C(=O)N1)C(=O)N1CCC[C@H]1C(=O)NCCc1ccccc1
Result string: 11

Next item in the queue.
Query string: Identify measured half-life corresponding to CCCC[C@H](NC(=O)[C@@H]1CCCN1C(=O)CNC(=O)[C@H](CCCCN)NC(=O)[C@@H]1CSSC[C@H](NC(=O)[C@@H]2CCCN2C(=O)[C@H](CCCNC(=N)N)NC(=O)[C@@H]2CCC(=O)N2)C(=O)N[C@@H](CC(C)C)C(=O)N[C@@H](CO)C(=O)N1)C(=O)N1CCC[C@H]1C(=O)N[C@@H](Cc1ccccc1)C(=O)O [Example 28, pE-R-P-C*-L-S-C*-K-G-P-Nle-P-F-OH] ([pGlu]RPCLSCKGP[Nle]PF-OH; disulfide 4-7)
Result string: 0.217

====

experiment: Surrogate Activity-Based Plasma Stability Assay; assay type: in vitro ADME; conditions: rat
Where a SMILES comes first, the peptide text is derived from it. Bridges are numbered along the chain shown (N, C = ends). [ ]: non-standard residue; d: D form. pGlu = O=C1CC[C@@H](C(=O)O)N1; d(hCys) = N[C@H](CCS)C(=O)O; dNle = CCCC[C@@H](N)C(=O)O; dNva = CCC[C@@H](N)C(=O)O; hCys = N[C@@H](CCS)C(=O)O; Nle = CCCC[C@H](N)C(=O)O
In this section we review reported half-life values for a set of compounds.
Dear colleague, please return just the value in min, with no unit written.

For orientation, consider the following solved cases.
Query string: Identify measured half-life corresponding to CCCC[C@H](NC(=O)[C@@H]1CCCN1C(=O)CNC(=O)[C@H](CCCCN)NC(=O)[C@@H]1CSSC[C@H](NC(C)=O)C(=O)N[C@@H](CCCNC(=N)N)C(=O)N2CCC[C@H]2C(=O)N[C@@H](CCCNC(=N)N)C(=O)N[C@@H](CC(C)C)C(=O)N[C@@H](CO)C(=O)N1)C(=O)N1CCC[C@H]1C(=O)N[C@H](C)C(=O)O [Example 8, Ac-C*-R-P-R-L-S-C*-K-G-P-Nle-P-a-OH] (Ac-CRPRLSCKGP[Nle]P[dA]-OH; disulfide 1-7)
Result string: 662

Query string: Identify measured half-life corresponding to CC(=O)N[C@@H]1CCSSCC[C@@H](C(=O)N[C@@H](CCCCN)C(=O)NCC(=O)N2CCC[C@H]2C(=O)N[C@H](Cc2ccccc2)C(=O)N[C@H](C)C(=O)N[C@H](Cc2ccccc2)C(=O)O)NC(=O)[C@H](CO)NC(=O)[C@H](CC(C)C)NC(=O)[C@H](CCCNC(=N)N)NC(=O)[C@@H]2CCCN2C(=O)[C@H](CCCNC(=N)N)NC1=O [Example 18] (Ac-[d(hCys)]RPRLS[hCys]KGP[dF][dA][dF]-OH; disulfide 1-7)
Result string: 50

---
Query string: Identify measured half-life corresponding to CCCC[C@@H](NC(=O)[C@@H]1CCCN1C(=O)CNC(=O)[C@H](CCCCN)NC(=O)[C@@H]1CCSSC[C@@H](NC(C)=O)C(=O)N[C@@H](CCCNC(=N)N)C(=O)N2CCC[C@H]2C(=O)N[C@@H](CCCNC(=N)N)C(=O)N[C@@H](CC(C)C)C(=O)N[C@@H](CO)C(=O)N1)C(=O)N[C@H](C)C(=O)N[C@H](Cc1ccccc1)C(=O)O [Example 19, Ac-c-R-P-R-L-S-(hC)-K-G-P-(D-Nle)-a-f-OH] (Ac-[dC]RPRLS[hCys]KGP[dNle][dA][dF]-OH; disulfide 1-7 (inferred))
Result string: 50

Query string: Identify measured half-life corresponding to CCCC[C@@H](NC(=O)[C@@H]1CCCN1C(=O)CNC(=O)[C@H](CCCCN)NC(=O)[C@@H]1CCSSCC[C@@H](NC(=O)[C@@H]2CCCN2C(=O)[C@H](CCCNC(=N)N)NC(=O)[C@@H]2CCC(=O)N2)C(=O)N[C@@H](CC(C)C)C(=O)N[C@@H](CO)C(=O)N1)C(=O)N[C@H](CCC)C(=O)N[C@H](Cc1ccccc1)C(=O)O [Example 38] ([pGlu]RP[d(hCys)]LS[hCys]KGP[dNle][dNva][dF]-OH; disulfide 4-7)
Result string: 41
